Where do these numbers come from? They come from patent US9884806B2.

We begin with a simple list: items and their reported IC50.
molecular target: first bromodomain (BrD1) of human BRD4 (Homo sapiens, UniProt O60885); construct: the first bromodomain (BrD1) of human BRD4; poly-His (cleaved yes); assay: Fluorescence anisotropy binding assay (competition with FITC-labeled MS417 probe); settings: FITC-MS417 probe 80 nM, PBS pH 7.4, 1 hour, 25° C., read-out: BRD4_1 IC50

Sample answers from the record:
[[record]]
chem_smiles = "CC1=C(Nc2ccc(C(=O)NC3CCCCC3)c(Cl)c2)CCC1=O"
tested_target = "first bromodomain (BrD1) of human BRD4 (Homo sapiens, UniProt O60885)"
experimental_result = "> 10 µM"

[[record]]
chem_smiles = "CC1=C(Nc2cc(C(=O)O)ccc2Cl)CCC1=O"
tested_target = "first bromodomain (BrD1) of human BRD4 (Homo sapiens, UniProt O60885)"
experimental_result = "1 to 10 µM"


Here's the next entry for you.
Query: IC50; subject: COc1ccc(NC(=O)c2ccc(NC3=C(C)C(=O)CC3)c(Cl)c2)cc1
< 1 µM
